biological target: PRMT5-MEP50 enzyme complex (Homo sapiens, UniProt O14744); construct: Full-length (FL)-PRMT5-MEP50 enzyme complex (recombinant proteins from baculovirus-transfected Sf21 cells: FL-PRMT5; MW=73837 kDa and FL-MEP50; MW=38614); made in house; host or cells: baculovirus-transfected Sf21 cells; assay: PRMT5-MEP50 Enzyme Methylation Assay (Version B); type: biochemical; details: second of two EC50s: 7 parameters biphasic model; read-out: Enzyme Methylation Assay Version B (EC50_2)
Sequence (O14744 whole entry): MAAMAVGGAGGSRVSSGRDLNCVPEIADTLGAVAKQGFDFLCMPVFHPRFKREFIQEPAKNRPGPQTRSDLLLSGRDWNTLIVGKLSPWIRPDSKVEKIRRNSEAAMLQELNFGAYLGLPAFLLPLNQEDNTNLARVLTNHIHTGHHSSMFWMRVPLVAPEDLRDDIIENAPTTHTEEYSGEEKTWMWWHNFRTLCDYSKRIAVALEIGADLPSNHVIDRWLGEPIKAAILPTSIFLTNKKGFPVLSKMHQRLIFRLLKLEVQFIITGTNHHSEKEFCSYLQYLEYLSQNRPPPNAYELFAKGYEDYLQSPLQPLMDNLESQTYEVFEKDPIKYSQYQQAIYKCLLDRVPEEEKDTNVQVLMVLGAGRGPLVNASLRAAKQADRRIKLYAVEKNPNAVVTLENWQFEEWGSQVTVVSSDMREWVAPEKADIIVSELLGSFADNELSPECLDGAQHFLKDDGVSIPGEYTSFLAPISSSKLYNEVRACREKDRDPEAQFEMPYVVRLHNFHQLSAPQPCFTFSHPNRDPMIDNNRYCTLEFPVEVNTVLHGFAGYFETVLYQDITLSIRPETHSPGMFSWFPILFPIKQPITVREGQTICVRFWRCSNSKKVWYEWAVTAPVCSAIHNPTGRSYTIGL
Sequence (Q9BQA1 whole entry partner): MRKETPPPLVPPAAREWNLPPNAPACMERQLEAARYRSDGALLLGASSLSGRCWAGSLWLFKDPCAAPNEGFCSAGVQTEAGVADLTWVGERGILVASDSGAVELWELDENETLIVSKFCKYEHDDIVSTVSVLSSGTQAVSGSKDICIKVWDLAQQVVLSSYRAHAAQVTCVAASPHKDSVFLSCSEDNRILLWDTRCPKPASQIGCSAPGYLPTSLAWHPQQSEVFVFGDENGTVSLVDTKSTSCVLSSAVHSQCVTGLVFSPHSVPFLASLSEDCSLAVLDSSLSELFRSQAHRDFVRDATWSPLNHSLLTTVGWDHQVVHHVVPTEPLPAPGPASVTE
MEASUREMENT_NAME: EC50

Below: 2 compounds and their reported EC50.
O=C(c1ccc(C(=O)N2C3CCC2COC3)cc1)N1CC[C@H](N2CCc3cc(F)ccc3C2)[C@@H](O)C1 [Example 39]
> 100 µM
O=C(c1ccc(C(=O)N2C3CCC2COC3)cc1)N1CC[C@@H](N2CCc3ccc(F)cc3C2)[C@H](O)C1 [Example 42]
> 100 µM

So what's the measured EC50 for this one? O=C(c1ccc(OCC(F)(F)F)nc1)N1CC[C@@H](N2CCc3ccccc3C2)[C@H](O)C1 [Example 44] > 100 µM
